Where do the numbers come from? From patent US20260234276A1.

Target: human CCR8 (human, UniProt P51685 1-355)
Experiment: cell-based or functional assay
Readout Label: hCCL1 (100 nM) residual response, Protocol #2, mAb 0.08 µg/mL (%)
Return type: number; implicit unit %.

Name the recorded hCCL1 (100 nM) residual response, Protocol #2, mAb 0.08 µg/mL for 3-32 (antibody, V domains shown) VH: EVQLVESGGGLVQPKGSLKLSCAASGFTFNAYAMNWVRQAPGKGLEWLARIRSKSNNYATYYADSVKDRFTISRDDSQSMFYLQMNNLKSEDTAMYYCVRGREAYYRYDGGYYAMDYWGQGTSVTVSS VL: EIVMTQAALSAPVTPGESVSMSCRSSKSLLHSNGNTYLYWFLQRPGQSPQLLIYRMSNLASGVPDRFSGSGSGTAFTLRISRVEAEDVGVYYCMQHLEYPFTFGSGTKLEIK .
88

Thanks! And 3-14 (antibody, V domains shown) VH: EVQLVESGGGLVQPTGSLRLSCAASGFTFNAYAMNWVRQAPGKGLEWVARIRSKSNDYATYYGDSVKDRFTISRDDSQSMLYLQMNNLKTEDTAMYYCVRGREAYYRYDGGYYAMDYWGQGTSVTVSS VL: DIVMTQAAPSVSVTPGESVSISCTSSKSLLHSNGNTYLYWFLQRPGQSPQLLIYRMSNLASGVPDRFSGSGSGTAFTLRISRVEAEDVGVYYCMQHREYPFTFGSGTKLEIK ?
72

How about this binder: 3-13 (antibody, V domains shown) VH: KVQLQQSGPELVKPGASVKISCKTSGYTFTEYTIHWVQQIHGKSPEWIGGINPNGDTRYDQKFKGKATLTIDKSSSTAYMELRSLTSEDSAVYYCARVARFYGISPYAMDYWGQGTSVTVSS VL: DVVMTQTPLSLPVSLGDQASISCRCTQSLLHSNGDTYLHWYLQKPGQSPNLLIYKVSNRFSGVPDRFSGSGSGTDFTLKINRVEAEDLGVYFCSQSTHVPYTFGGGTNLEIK
101
